Test system: BHK-21
SETTINGS: read-out: CC50 (Rabies test)

COMPOUND_STRING: CC(C)n1ncc2c(C(=O)Nc3ccc(F)cc3F)cc(-c3cccs3)nc21
CC50: > 100 µM
--
COMPOUND_STRING: CC(C)n1ncc2c(C(=O)Nc3ccccc3F)cc(-c3cccs3)nc21
CC50: > 100 µM
--
COMPOUND_STRING: CC(C)n1ncc2c(C(=O)Nc3ccc(F)cc3)cc(-c3ccsc3)nc21
CC50: > 260 µM
--
COMPOUND_STRING: CC(C)n1ncc2c(C(=O)Nc3cccc(S(N)(=O)=O)c3)cc(-c3cccs3)nc21
CC50: 12.2 µM
--
COMPOUND_STRING: CC(C)n1ncc2c(C(=O)Nc3ccc(F)cc3)cc(-c3cccs3)nc21
CC50: > 100 µM

----------
Tested on: Poliovirus 3
PROCEDURE_SUMMARY: microbe, parasite or virus in culture
Format: cell-based
SETTINGS: read-out: EC50 PV3
pEC50: −log10 of the molar value.
OBSERVATION_TYPE: pEC50

COMPOUND_STRING: CC(C)n1ncc2c(C(=O)Nc3ccc(F)cn3)cc(-c3cccs3)nc21
MEASURED_TARGET: Poliovirus 3
OBSERVATION_TYPE: pEC50
RECORDED_VALUE: < 5.00
--
COMPOUND_STRING: CC(C)n1ncc2c(C(=O)Nc3ccncn3)cc(-c3cccs3)nc21
MEASURED_TARGET: Poliovirus 3
OBSERVATION_TYPE: pEC50
RECORDED_VALUE: < 5.00
--
COMPOUND_STRING: CC(C)n1ncc2c(C(=O)Nc3c(F)cc(F)cc3F)cc(-c3cccs3)nc21
MEASURED_TARGET: Poliovirus 3
OBSERVATION_TYPE: pEC50
RECORDED_VALUE: < 4.60
--
COMPOUND_STRING: CC(C)n1ncc2c(C(=O)Nc3ccc(S(C)(=O)=O)cc3)cc(-c3cccs3)nc21
MEASURED_TARGET: Poliovirus 3
OBSERVATION_TYPE: pEC50
RECORDED_VALUE: < 5.00
--
COMPOUND_STRING: CC(C)n1ncc2c(C(=O)Nc3ccc(F)c(F)c3)cc(-c3cccs3)nc21
MEASURED_TARGET: Poliovirus 3
OBSERVATION_TYPE: pEC50
RECORDED_VALUE: < 4.60
--
COMPOUND_STRING: CC(C)n1ncc2c(C(=O)Nc3ccccc3F)cc(-c3ccncc3)nc21
MEASURED_TARGET: Poliovirus 3
OBSERVATION_TYPE: pEC50
RECORDED_VALUE: < 4.60
--
COMPOUND_STRING: CC(C)n1ncc2c(C(=O)Nc3cccc(C(N)=O)c3)cc(-c3cccs3)nc21
MEASURED_TARGET: Poliovirus 3
OBSERVATION_TYPE: pEC50
RECORDED_VALUE: 5.20
--
COMPOUND_STRING: CC(C)n1ncc2c(C(=O)Nc3cccnc3)cc(-c3ccsc3)nc21
MEASURED_TARGET: Poliovirus 3
OBSERVATION_TYPE: pEC50
RECORDED_VALUE: < 5.00
--
COMPOUND_STRING: CC(C)n1ncc2c(C(=O)Nc3ccccc3F)cc(-c3cccs3)nc21
MEASURED_TARGET: Poliovirus 3
OBSERVATION_TYPE: pEC50
RECORDED_VALUE: 5.15
--
COMPOUND_STRING: CC(C)n1ncc2c(C(=O)Nc3ccncc3)cc(-c3cccs3)nc21
MEASURED_TARGET: Poliovirus 3
OBSERVATION_TYPE: pEC50
RECORDED_VALUE: < 5.00
--
COMPOUND_STRING: CC(C)n1ncc2c(C(=O)Nc3ccc(F)cc3)cc(-c3cccs3)nc21
MEASURED_TARGET: Poliovirus 3
OBSERVATION_TYPE: pEC50
RECORDED_VALUE: < 4.60
--
COMPOUND_STRING: CC(C)n1ncc2c(C(=O)Nc3ccccn3)cc(-c3ccsc3)nc21
MEASURED_TARGET: Poliovirus 3
OBSERVATION_TYPE: pEC50
RECORDED_VALUE: < 5.00
--
COMPOUND_STRING: CNS(=O)(=O)c1cccc(NC(=O)c2cc(-c3cccs3)nc3c2cnn3C(C)C)c1
MEASURED_TARGET: Poliovirus 3
OBSERVATION_TYPE: pEC50
RECORDED_VALUE: < 5.00

----------
System: Vero 76
SETTINGS: read-out: CC50 (SARS Coronavirus test), with SARS Coronavirus Urbani test
OBSERVATION_TYPE: CC50 (µM)

COMPOUND: CC(C)n1ncc2c(C(=O)Nc3ccc(F)cc3)cc(-c3cccs3)nc21 [JX-017]
MEASURED_TARGET: Vero 76
OBSERVATION_TYPE: CC50
CENSOR_SYMBOL: =
RECORDED_VALUE: 10

COMPOUND: CC(C)n1ncc2c(C(=O)Nc3ccccc3F)cc(-c3cccs3)nc21 [JX-001]
MEASURED_TARGET: Vero 76
OBSERVATION_TYPE: CC50
CENSOR_SYMBOL: =
RECORDED_VALUE: 3.3

COMPOUND: CC(C)n1ncc2c(C(=O)Nc3ccc(F)cc3)cc(-c3ccsc3)nc21 [JX-030]
MEASURED_TARGET: Vero 76
OBSERVATION_TYPE: CC50
CENSOR_SYMBOL: =
RECORDED_VALUE: 18.7

COMPOUND: CC(C)n1ncc2c(C(=O)Nc3ccc(F)cc3F)cc(-c3cccs3)nc21 [JX-008]
MEASURED_TARGET: Vero 76
OBSERVATION_TYPE: CC50
CENSOR_SYMBOL: >
RECORDED_VALUE: 100

COMPOUND: CC(C)n1ncc2c(C(=O)Nc3cccc(S(N)(=O)=O)c3)cc(-c3cccs3)nc21 [JX-025]
MEASURED_TARGET: Vero 76
OBSERVATION_TYPE: CC50
CENSOR_SYMBOL: =
RECORDED_VALUE: 7.2

----------
Tested on: Yellow Fever Virus
PROCEDURE_SUMMARY: microbe, parasite or virus in culture
Type: cell-based
SETTINGS: read-out: EC50 Yellow Fever Virus
pEC50: −log10 of the molar value.
Here, each record is paired with measured pEC50 data.
OBSERVATION_TYPE: pEC50

COMPOUND_STRING: CC(C)n1ncc2c(C(=O)Nc3ccc(F)cc3)cc(-c3cccs3)nc21
RECORDED_VALUE: < 5.00

COMPOUND_STRING: CC(C)n1ncc2c(C(=O)Nc3ccc(F)cc3F)cc(-c3cccs3)nc21
RECORDED_VALUE: 4.35

COMPOUND_STRING: CC(C)n1ncc2c(C(=O)Nc3ccc(F)cc3)cc(-c3ccsc3)nc21
RECORDED_VALUE: < 4.95

COMPOUND_STRING: CC(C)n1ncc2c(C(=O)Nc3cccc(S(N)(=O)=O)c3)cc(-c3cccs3)nc21
RECORDED_VALUE: < 5.32

COMPOUND_STRING: CC(C)n1ncc2c(C(=O)Nc3ccccc3F)cc(-c3cccs3)nc21
RECORDED_VALUE: < 5.32

----------
Parameter: pEC50. Scope: all listed entries.
Test system: Coxsackievirus B2
PROCEDURE_SUMMARY: microbe, parasite or virus in culture
Format: cell-based
SETTINGS: read-out: EC50 CVB2
pEC50: −log10 of the molar value.
OBSERVATION_TYPE: pEC50

COMPOUND: CC(C)n1ncc2c(C(=O)Nc3cc(F)cc(F)c3)cc(-c3cccs3)nc21 [JX-016]
MEASURED_TARGET: Coxsackievirus B2
CENSOR_SYMBOL: <
RECORDED_VALUE: 5.00

COMPOUND: CC(C)n1ncc2c(C(=O)Nc3ccccn3)cc(-c3cccs3)nc21 [JX-040]
MEASURED_TARGET: Coxsackievirus B2
CENSOR_SYMBOL: =
RECORDED_VALUE: 6.22

COMPOUND: CC(C)n1ncc2c(C(=O)Nc3ccccn3)cc(C3CC3)nc21 [JX-071]
MEASURED_TARGET: Coxsackievirus B2
CENSOR_SYMBOL: =
RECORDED_VALUE: 5.20

COMPOUND: CC(C)n1ncc2c(C(=O)Nc3ccncn3)cc(-c3cccs3)nc21 [JX-043]
MEASURED_TARGET: Coxsackievirus B2
CENSOR_SYMBOL: =
RECORDED_VALUE: 6.22

COMPOUND: CC(C)n1ncc2c(C(=O)Nc3ncccn3)cc(-c3cccs3)nc21 [JX-041]
MEASURED_TARGET: Coxsackievirus B2
CENSOR_SYMBOL: =
RECORDED_VALUE: 6.22
